assay: Clearance in human; type: ADME
attribute.measured: clearance (mL/min/kg)
Write the answer as a number in mL/min/kg, unit excluded.

## Input So what does the record say about clearance for CCOC(=O)c1ccc(-n2c(/C=C3\OC(=O)c4c3cc(C)[nH]c4=O)ccc2CO)cc1 ?
## Output 15.1

---

test: Drug recovery in human plasma at 10 uM after 6 hrs by LC-MS/MS analysis; type: ADME, cell-free; settings: read-out: Drug recovery
attribute.measured: remaining at 6 h, 10 µM (%)
Write the answer as a number in %, unit excluded.

## Input So what does the record say about remaining at 6 h, 10 µM for CCOC(=O)c1ccc(-n2c(/C=C3\OC(=O)c4c3cc(C)[nH]c4=O)ccc2CO)cc1 ?
## Output 56.7
